Every entry's value here was drawn from the supplement of paper PMC4466140.

- target or test system: AgLsb1
- measurement notes: SPOT peptide array binding signal intensity (averaged, normalized) (arbitrary units (background-subtracted, floor 0; scale differs between SH3 domains)); higher = stronger binding of the SH3 domain to the peptide
observed property: SPOT peptide array binding signal intensity

[[record]]
binder = "NIKVLLNPKLGKPVK"
data_value = "≤ 0"

[[record]]
binder = "QQEQNTPPLPPKPKS"
data_value = "≤ 0"


Summary for this binder, KDKKTKPTPPPKPSH : SPOT peptide array binding signal intensity is ≤ 0
